Hello, the source for this data is the supplement of paper PMC3545927, in case you need it.

- Tested target: furin, P09958;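 also: purified furin at 1:10 enzyme:substrate in 50 mM HEPES pH 7.5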
- Sequence (P09958 whole entry): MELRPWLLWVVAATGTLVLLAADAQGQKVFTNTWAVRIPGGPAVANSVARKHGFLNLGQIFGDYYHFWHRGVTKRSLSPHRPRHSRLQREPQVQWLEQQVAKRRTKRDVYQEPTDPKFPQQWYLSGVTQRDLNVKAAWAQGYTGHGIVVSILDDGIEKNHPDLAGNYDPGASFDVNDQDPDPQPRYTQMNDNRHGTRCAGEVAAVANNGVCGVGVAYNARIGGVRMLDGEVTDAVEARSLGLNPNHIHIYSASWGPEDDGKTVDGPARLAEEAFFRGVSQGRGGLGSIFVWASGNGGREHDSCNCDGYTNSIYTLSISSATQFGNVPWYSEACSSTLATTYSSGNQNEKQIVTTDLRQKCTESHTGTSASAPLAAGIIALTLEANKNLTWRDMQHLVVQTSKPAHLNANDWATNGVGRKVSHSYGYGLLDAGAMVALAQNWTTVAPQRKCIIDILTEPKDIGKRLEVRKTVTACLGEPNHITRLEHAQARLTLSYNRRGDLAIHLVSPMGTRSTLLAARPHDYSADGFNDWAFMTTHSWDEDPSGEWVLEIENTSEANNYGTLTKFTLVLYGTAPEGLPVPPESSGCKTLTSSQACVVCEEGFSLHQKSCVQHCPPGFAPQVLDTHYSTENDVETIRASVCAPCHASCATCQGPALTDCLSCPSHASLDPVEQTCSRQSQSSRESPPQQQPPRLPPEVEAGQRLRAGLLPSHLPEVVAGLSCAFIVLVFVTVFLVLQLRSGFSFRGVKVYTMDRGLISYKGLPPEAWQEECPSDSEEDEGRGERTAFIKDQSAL
- Experiment summary: furin cleavage Z-score vs untreated control; higher = more cleavage, active = 3.5 or more, inactive = 1 or less, 8 variable residues between constant flanks
- Particulars: 7.5 min
The other results are listed elsewhere or left out. No count for the full screen is at hand.
Possible outcomes: active, inactive

>>> df
               residue_sequence  discrete_label
0   CASTTSRSACAGNASASA [HC1390]        inactive
1  CASRIRIERVAGNASASA [FS-1087]        inactive
2  CASHHRHRRGAGNASASA [FS-1410]          active
3   CASLERLRRGAGNASASA [FS-296]        inactive
4   CAFFSVLIARAGNASASA [HC1585]        inactive
5   CASVPCSAHLAGNASASA [HC2490]        inactive
